System: NCI-H522
protocolDetails: NCI tumour cell line growth inhibition, 48 h
The source made the active and inactive calls. No stated cut-off is given here; in the data, active = GI50 up to about 1.1 µM and inactive = higher.
quantityKind: GI50

Prompt: Endpoint output: GI50 of CCCCCCCCC[C@@H]1C[C@@H]2CCC3C(C(=O)OCCCCNC(=O)OCc4ccccc4)=C(C)N=C(N1)N32 (some centres undefined) . Value?
Response: 2.52 µM (inactive)

Prompt: Name the recorded GI50 for O=C(Nc1cccc(F)c1)c1cc2ccc(O)cc2o/c1=N\c1ccccc1F .
Response: 2.09 µM (inactive)

Prompt: Report GI50 for O=C(CC(=O)c1ccncc1)c1ccccc1 please.
Response: 67.3 µM (inactive)

Prompt: Any idea what its GI50 is? The compound is COc1ccccc1/C=C/C1=NN(c2cccc(S(=O)(=O)O)c2)C2(C1)C(Cl)C(=O)N2c1nc2ccccc2s1 (centres undefined)
Response: 9.04 µM (inactive)

Prompt: Given O=[N+]([O-])/C(C(Cl)=C(Cl)Cl)=C1\NCCO1 , state its recorded GI50.
Response: > 100 µM (inactive)

Prompt: Give its GI50 value. Item: O=c1cc(N2CCCC2)[nH]c(=O)n1-c1ccc(F)cc1
Response: > 100 µM (inactive)

Prompt: Which measured GI50 value corresponds to CCOC(=O)c1ccc(NC2Oc3cc4c(cc3C(c3cc(OC)c(OC)c(OC)c3)C2C)OCO4)cc1 (centres undefined) ?
Response: 0.416 µM (active)

Prompt: Dear colleague, I am looking for the recorded GI50 of the following compound: C=C(Br)COc1ccc2c(C)cc(=O)oc2c1
Response: 42.6 µM (inactive)

Prompt: What value of GI50 has been reported for the following compound? CC(C)=CCC/C(C)=C/COc1c2ccoc2cc2oc(=O)ccc12 [BERGAMOTTIN]
Response: 19 µM (inactive)

Prompt: Would you mind telling me what GI50 value was observed for COC(=O)c1c(C)cccc1C1CN=NC12Cc1c(C)cccc1C2=O (centres undefined) ?
Response: 24.9 µM (inactive)

Prompt: I'd like to know its GI50. The compound in question is CNC(=O)N(CCC#N)CCN(C(=O)N(C)C)c1ccccc1
Response: > 100 µM (inactive)

Prompt: Given the entry CCC(/C=C/C1OC(=O)C=CC1C)=C\C(C)C/C=C/C(C)=C/C(C)C(=O)C(C)C(O)C(C)C/C(C)=C/C(=O)O (centres undefined) , report its measured GI50.
Response: 0.955 µM (active)

Prompt: Tell me the measured GI50 of C=CCNC(=O)/C(Cc1cc(Br)c(OC)c(Br)c1O)=N\O , please.
Response: 1.78 µM (inactive)

Prompt: Fill in: GI50 of CC(=O)Nc1ccc(C2[C@H]3C(=O)N(c4ccc(Cc5ccc(N6C(=O)[C@@H]7ON(c8ccccc8)C(c8ccc(NC(C)=O)cc8)[C@@H]7C6=O)cc5)cc4)C(=O)[C@H]3ON2c2ccccc2)cc1 (some centres undefined) is ___
Response: > 100 µM (inactive)

Prompt: May I ask what GI50 has been recorded for O=C1C(Br)=CC2(C=C1Br)CCNC1=C2C(=O)c2ccccc2C1=O ?
Response: 3.58 µM (inactive)

Prompt: Can you look up the measured GI50 of O=C(c1ccccc1Br)C(F)(F)F for me?
Response: > 100 µM (inactive)

Prompt: Record request: GI50 value, item O=P1(O)c2ccccc2CSCc2ccccc21
Response: > 100 µM (inactive)

Prompt: Item O=S(=O)(N1CCCCN(S(=O)(=O)C(F)(F)F)CCCN(S(=O)(=O)C(F)(F)F)CCCN(S(=O)(=O)C(F)(F)F)CCCCN(S(=O)(=O)C(F)(F)F)CCCN(S(=O)(=O)C(F)(F)F)CCC1)C(F)(F)F has what recorded GI50?
Response: 35.2 µM (inactive)

Prompt: Report GI50 for CC1=C(C(=O)NCCCN(CCO)CCO)CC(C(=O)NCCCN(CCO)CCO)=C(C)N1 please.
Response: 98.9 µM (inactive)

* * *

quantityKind: GI50 (µM)
Please give a number only; it is taken to be in µM.

Prompt: Requested read-out GI50, target or system HCT-15, entry N#CC(Cc1ccccc1Br)N(CCC1=CCCCC1)C(c1ccccc1)c1ccccc1 (centres undefined)
Response: 50.2

Prompt: Give the reported GI50 for COc1cc2cc(C(=O)N3CC(CCl)c4c3cc(NC(=O)C(C)Nc3c([N+](=O)[O-])cc(C(=O)NCCN(C)C)cc3[N+](=O)[O-])c3ccccc43)[nH]c2c(OC)c1OC (centres undefined) (system: HCT-15).
Response: 0.164

Prompt: Give recorded GI50 with HCT-15 for the following compound: CCOC(=O)c1c[nH]c(C(=O)OCC)c1-c1cccn1-c1ccccc1
Response: 30.4

* * *

Test system: A549
protocolDetails: NCI tumour cell line growth inhibition, 48 h
Active and inactive are the calls of the source. Rule as the data show it: active = GI50 up to about 1.1 µM and inactive = higher.
// allowed return values: class 1 = active, class 0 = inactive

Prompt: Record request — test call for Cc1ccc(S(=O)(=O)c2[nH]cc(/C(=C\C3CCCCC3)[N+](=O)[O-])c2C2CCCCC2)cc1
Response: class 0

Prompt: Just curious, what result did ClCCCC1COc2ccccc2O1 (stereo not given) get here?
Response: class 0

Prompt: Please let me know the test result on file for COC1=CC(=O)c2c(cc(COP(N)(=O)N(CCCl)CCCl)n2C)C1=O (stereo not given) .
Response: class 1

Prompt: What did the test return for CC(Nc1cc(=O)n(C)c(=O)[nH]1)c1ccccc1 (stereo not given) ?
Response: class 0

Prompt: What did this assay record as the result for COC(=O)C(Cc1c[nH]c2ccccc12)NP(=O)(O)OCC1OC(n2ccc(N)nc2=O)C(O)C1O (stereo not given) ?
Response: class 0

Prompt: Hello, I am checking results. What call was entered for ClCC1(CCl)COC1 ?
Response: class 0

Prompt: Hey, what did the test say about COc1ccc(NC(=O)c2oc3cc(O)ccc3c(=O)c2C)c([N+](=O)[O-])c1 ?
Response: class 0

Prompt: Could you please tell me the result logged for CC(Cn1c2c3ccccc3ccc2c2oc(=O)c3ccccc3c21)N(C)C (stereo not given) in this assay?
Response: class 0

Prompt: Outcome? Nc1ccc(Cc2ccc(/N=C\c3ccc(OCc4cccc(COc5ccc(/C=N\c6ccc(Cc7ccc(N)cc7)cc6)cc5)n4)cc3)cc2)cc1
Response: class 0

Prompt: Which outcome did this test record for the molecule O=C(CSCC(=O)N/N=C\c1cc(Cl)cc(Cl)c1O)N/N=C\c1cc(Cl)cc(Cl)c1O ?
Response: class 0

* * *

Test system: SR
protocolDetails: NCI tumour cell line growth inhibition, 48 h
Calls of active or inactive are those of the source. Cut-off read from the data, not from the text of the source: active = GI50 up to about 1.1 µM and inactive = higher.
quantityKind: GI50

Prompt: Look up GI50: O=S(=O)(O)SC/C=C\CSS(=O)(=O)O
Response: > 100 µM (inactive)

Prompt: Record request: GI50 value, item O=C1Nc2ccccc2Cn2c1cc1oc(-c3ccccc3)cc12
Response: > 100 µM (inactive)

Prompt: Would you kindly share the measured GI50 for CCC(C)C(Nc1c2ccccc2nc2c(C(=O)NCCN(C)C)cccc12)C(=O)O (stereo not given) ?
Response: 46.6 µM (inactive)

Prompt: Which value of GI50 has been reported for N#C/C(=C\N1CCNC1=S)C(=O)c1ccc2ccccc2c1 in the records?
Response: 71.4 µM (inactive)

Prompt: Query (compound): CC(=O)C1CC[C@@H]2[C@H](CC[C@]3(C)[C@@H](O)CC[C@@H]23)[C@H]1C(=O)O (stereo not given in full) ; field requested: GI50
Response: > 100 µM (inactive)

Prompt: So what does the record say about GI50 for N#Cc1c(=O)c2cccnc2n2c1[nH]c1ccccc12 ?
Response: > 100 µM (inactive)

Prompt: Given O=C(N/N=C1/C(=O)N(c2ccc(Cl)cc2Cl)C(=O)C(=O)C1c1nc2ccccc2o1)c1ccccc1O (stereo not given) , state its recorded GI50.
Response: 47.2 µM (inactive)

Prompt: Param item = CC1CCCC(C(=O)CC2CC(=O)NC(=O)C2)C1=O (stereo not given) ; retrieve measured GI50.
Response: > 100 µM (inactive)

Prompt: State the recorded GI50 for this entry: CCOc1ccc(N2C(=O)C3c4[nH]c5ccccc5c4C4CCC(C(C)(C)C)CC4C3C2=O)cc1 (stereo not given)
Response: 42.8 µM (inactive)

Prompt: GI50 for C/C(=N\O)c1cccc(Nc2nc3ccccc3c3occc23)c1 ?
Response: 5.81 µM (inactive)

* * *

System: OVCAR-3
protocolDetails: NCI tumour cell line growth inhibition, 48 h
Activity calls are given as the source filed them. No stated cut-off is given here; in the data, active = GI50 up to about 1.1 µM and inactive = higher.
A correct response names exactly one class from T = active, F = inactive

Prompt: Fill in: this test's call for Cc1oncc1/N=C1\C=C(O)C(=O)c2ccccc21 is ___
Response: F

Prompt: What outcome does the record of this test show for Cc1cc(N(CCC#N)CCC#N)ccc1/C=C/C(=O)Nc1cccc(Cl)c1 ?
Response: F

Prompt: Name the outcome recorded for CCC1(O)C(=O)OCc2c1cc1n(c2=O)Cc2cc3c(N)cccc3nc2-1 (stereo not drawn) in the assay.
Response: T

Prompt: State the result this test recorded for C/C(=N\NC(=S)N1CCCCCC1)c1nccnc1C .
Response: T

Prompt: Assay outcome for ClCC1(CCl)COC1 : what was it?
Response: F

Prompt: For this compound, state the assay outcome: CCCCCCCCCCCCCCCCOC[C@@H](COC(c1ccccc1)(c1ccccc1)c1ccccc1)O[PH](=S)OC (stereo partly drawn)
Response: F

Prompt: Per the records of this test, what outcome belongs to CC(C)(C)COC(=O)C(C)(C)NC(=O)C(CC(=O)OCc1ccccc1)NC(=O)OCc1ccccc1 (stereo not drawn) ?
Response: F

Prompt: Call for entry CS(=O)(=O)OCOS(C)(=O)=O :
Response: F

Prompt: Would you mind telling me which call this test gave COc1ccc2c(c1)CCc1cc(C(N)=O)c3nnnn3c1-2 ?
Response: F

Prompt: Please indicate how the test categorized NC(=O)[C@H](Cc1ccc(O)cc1)NC1=C(Cl)C(=O)c2c(O)ccc(O)c2C1=O .
Response: F

Prompt: Lab log entry: COc1cc2c(cc1OC)C13CCN4C=C5CCOC6CC(=O)N2C1C6C5CC43 (stereo not drawn) — outcome as called in the assay?
Response: F

Prompt: Look up the recorded call for Cc1ccc(S(=O)(=O)c2[nH]cc(/C(=C\C3CCCCC3)[N+](=O)[O-])c2C2CCCCC2)cc1 in this test.
Response: T

Prompt: Outcome logged for Cc1noc(NS(=O)(=O)c2ccc(NC(=O)c3ccc4[nH]c5ccccc5c(=O)c4c3)cc2)c1C in this assay:
Response: F

Prompt: Could you check what this test reported for COc1cc(/C=C2\CCc3ccccc3C2=O)cc(OC)c1OC ?
Response: F

Prompt: Outcome? Oc1c2c(c(O)c3ccccc13)C1(N=N2)c2ccccc2Oc2ccccc21
Response: F

Prompt: Dear colleague, could you share the recorded outcome for CN(/N=C1\C(=O)Nc2ccccc21)c1ccccc1 when you have a moment?
Response: F

Prompt: Call for entry CC(Cn1c2c3ccccc3ccc2c2oc(=O)c3ccccc3c21)N(C)C (stereo not drawn) :
Response: F

Prompt: For this compound, state the assay outcome: C=C(Br)COc1ccc2c(C)cc(=O)oc2c1
Response: F

Prompt: Each compound tested received a call. Report the one for Cc1cc(CC(O)c2ccc(Cl)c(Cl)c2)nc(O)n1 (stereo not drawn) .
Response: F

Prompt: For COC(=O)C1(C)C=C(Nc2ccccc2)C(=O)N1c1ccccc1 (stereo not drawn) , what call appears in the results of this test?
Response: F

Prompt: State the result this test recorded for CN(C)CN1CSC(=S)N(CN(C)C)C1 .
Response: F

Prompt: Per the records of this test, what outcome belongs to O=c1c2cc3c(cc2c2cccc4c2n1CCC4)OCO3 ?
Response: F

Prompt: Recorded test call requested for COc1cc(O)cc2oc(-c3ccc(O)cc3)cc(=O)c12
Response: F
